Molecular target: UniProt:P07550
Sequence (P07550 whole entry): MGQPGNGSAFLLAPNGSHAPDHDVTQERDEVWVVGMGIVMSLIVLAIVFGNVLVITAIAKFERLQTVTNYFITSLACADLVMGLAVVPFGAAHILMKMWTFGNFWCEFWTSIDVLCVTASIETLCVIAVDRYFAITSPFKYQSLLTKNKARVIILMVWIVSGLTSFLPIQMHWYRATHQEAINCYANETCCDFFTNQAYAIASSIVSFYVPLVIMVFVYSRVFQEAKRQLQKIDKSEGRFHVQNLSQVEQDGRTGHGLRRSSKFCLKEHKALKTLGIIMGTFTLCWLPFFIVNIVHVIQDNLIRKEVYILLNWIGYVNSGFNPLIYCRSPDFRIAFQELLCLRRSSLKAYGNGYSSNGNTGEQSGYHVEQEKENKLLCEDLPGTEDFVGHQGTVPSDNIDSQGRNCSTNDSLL
Assay: Agonist activity at human beta2 adrenergic receptor in human BEAS-2B cells by cAMP accumulation assay
Format: functional, cell-based
assay.endpoint: EC50 (nM)

smiles.str	subject.of.test	EC50, nM
NCCCCOc1ccc(Nc2ccc(CCNC[C@H](O)c3ccc(O)c4[nH]c(=O)ccc34)cc2)cc1	UniProt:P07550	0.631

A. CC(C)(N)COc1ccc(Nc2ccc(CCNC[C@H](O)c3ccc(O)c4[nH]c(=O)ccc34)cc2)cc1-c1ccccc1
B. CC(C)(N)COc1ccc(Nc2ccc(CCNC[C@H](O)c3ccc(O)c4[nH]c(=O)ccc34)cc2)cc1
C. O=c1ccc2c([C@@H](O)CNCCc3ccc(Nc4ccc(OCCN5CCNCC5)cc4)cc3)ccc(O)c2[nH]1
-- ask Sort entries by EC50 from minimum to maximum value. As an answer, provide the labels arranged in the order called for.
-- reply A, B, C
(A: 0.631 nM, B: 1 nM, C: 1.58 nM)
